binders and their reported ELISA signal at phage dilution factor 1
# Assay system: T1, TRBV5-1 antigenic peptide No. 1 (TQTPRYLIKTRGQQ), biotinylated (Homo sapiens, also: biotinylated (site not given here))
# T1 construct: short form of antigenic peptide No. 1 of the TRBV5-1 segment of the human TCR beta chain; probably held on streptavidin, since its control is PBS-streptavidin (surmise); also called Ag3; peptide-biotin; source: synthetic peptide (Proteogenix)
# T1 chain: TQTPRYLIKTRGQQ
# Procedure details: ELISA; confirmatory monoclonal phage ELISA; antigens peptide alone, peptide-BSA, peptide-biotin; controls PBS, 10% BSA-PBS, PBS-streptavidin; phage dilution factors 1, 3, 9
# Run conditions: one partner purified
Ends that are not written are not given here.
Quantity kind: ELISA signal at phage dilution factor 1

- Binder: "scFv clone A5 (scFv, V domains shown, as printed identical to the VH of A2; tested as phage clone in the confirmatory monoclonal ELISA; source: phage display clone from the human naive scFv library LiAb-SFMAX (Proteogenix), amplified in E. coli TG1) VH: QVQLQQSGPGLVKPSQTLSLTCAISGDSVSSNSAAWNWIRQSPSRGLEWLGRTYYRSKWYNDYAVSVKSRITINPDTSKNQFSLQLNSVTPEDTAVYYCARDQAAAEVYFDYWGQGTLVTVSS VL: NFMLTQPHSVSESPGKTVTISCTRSSGSIASNYVQWYQQRPGSSPTTVIYEDNQRPSGVPDRFSGSIDSSSNSASLTISGLKTEDEADYYCQSYDSSNHWVFGGGTKVTVL"
  Measured number: 2.73
- Binder: "scFv clone A8 (scFv, V domains shown, tested as phage clone in the confirmatory monoclonal ELISA; source: phage display clone from the human naive scFv library LiAb-SFMAX (Proteogenix), amplified in E. coli TG1) VH: QVQLVQSGPEMKKAGASVRVSCKGSGYTFSSFDINWVRQVPGQGLEWMGWMNPDTGNTGLAQKFQGRVTMTRDTSIRTAYMELRSLRSDDTAVYYCARDAPRNGRGMDVWGQGTMVTVSS VL: SYELTQPPSVSVSPGQTARITCSGDALPKQYAYWYQQKPGQAPVLVIYQDTKRPSGIPERFSGSSSGTTVTLTISGVQAEDEADYYCQSADSSGTYPVFGGGTKLTVL"
  Measured number: 2.09
- Binder: "scFv clone A12 (scFv, V domains shown, tested as phage clone in the confirmatory monoclonal ELISA; lead scFv from which the r-hIgG1 mAb was made; also called lead scFv; source: phage display clone from the human naive scFv library LiAb-SFMAX (Proteogenix), amplified in …) VH: QVQLQQWGAGLLKPSETLSLTCAVYGGSFSGYYWSWIRQPPGKGLEWIGEINHSGSTNYNPSLKSRVTISVDTSKNQFSLKLSSVTAADTAVYYCARWDLDYWGQGTLVTVSS VL: EIVLTQSPLSLPVTLGQSASISCRSSQSLVHSDGNTYLNWFQQRPGQSPRRLIYQVSKRDSGVPDRFSGSGSGTDFTLRISRVEAEDVGFYYCMQGTHWPPITFGQGTRLEIK"
  Measured number: 2.79
